experiment description: HepG2 liver cancer cell viability effects, profiling panel, resazurin fluorescence, 24 h, PK04 Diversity Set (AID 1172); also: test concentration not given here
protocol conditions: higher = more signal
Measured z-score of individual entries
property measured: z-score

compound	property measured	result
O=C1O[C@H](c2ccccc2)[C@H](c2ccccc2)N2[C@H]1[C@@H](C(=O)N1CCN(c3ncccn3)CC1)[C@]1(C(=O)Nc3ccc(C#CC4=CCCCC4)cc31)[C@H]2c1ccc(O)cc1	z-score	1.03
OC([C@@H]1CC(c2ccccc2)=NO1)[C@H]1CC(c2ccccc2)=NO1 (some centres not stated)	z-score	0.447
Cc1ccc(S[C@]2(C(=O)NCC(C)C)CC(=O)N(Cc3cc(C(F)(F)F)cc(C(F)(F)F)c3)[C@@H]2c2ccc(CO)cc2I)cc1	z-score	-0.0295
O=C1O[C@H](c2ccccc2)[C@H](c2ccccc2)N2[C@H]1[C@@H](C(=O)Nc1nc3ccccc3s1)[C@]1(C(=O)Nc3ccc(C#CC4(O)CCCCCC4)cc31)[C@H]2c1ccc(OCCO)cc1	z-score	-0.43
CC(CO)N1C(=O)[C@@H]2C3C(=O)OCCC/C=C\[C@H]3OC23C=CCN(c2ccc4ccccc4c2)C(=O)[C@@H]13 (some centres not stated)	z-score	-0.757
CCCCC(O)C1C=CC2C(=O)N(c3ccccc3)C(=O)C2N1Nc1ccccc1F (configuration not stated)	z-score	-0.8
COc1ccc([C@H]2OC[C@@H]3CC4(CC=CC4)C(=O)N32)cc1	z-score	-0.876

====

experiment description: splicing luciferase reporter signal modulators, primary screen, spliceosome inhibition project, cell-based, HEK293, splice +/- reporter (AID 1101);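 also: HEK293 cells carrying a splicing-competent luciferase reporter gene; test concentration not given here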
protocol conditions: luminescence, 24 h, higher = more signal, called active from +8 up or from −8 down
Classification field: Satisfied = z-score at or over -0.3; Not satisfied = z-score under -0.3.

compound	assigned class
COC(=O)c1c(CC[C@@H](CO)NC(=O)N[C@@H](C)Cn2cc(C3(O)CCCCC3)nn2)oc(C(C)=O)c1C(=O)OC	Not satisfied
O=C1O[C@@H](c2ccccc2)[C@@H](c2ccccc2)N2[C@@H](c3ccc(OCCO)cc3)[C@]3(C(=O)Nc4ccccc43)[C@@H](C(=O)NC[C@H](O)c3ccccc3)[C@H]12	Satisfied
CO[C@H]1O[C@H](CO)[C@@H](OC(=O)Nc2ccc(Br)cc2)[C@H](OC(=O)c2cc3ccccc3[nH]2)[C@H]1OC(=O)c1cc2ccccc2[nH]1	Not satisfied
COc1ccc(C(O)C2C=CC3C(=O)NC(=O)C3N2Nc2ccccn2)cc1 (stereo not drawn)	Satisfied
COC(=O)C(CC#Cc1ccc2c(c1)[C@]1(C(=O)N2)[C@H](c2ccc(O)cc2)N2[C@H](c3ccccc3)[C@H](c3ccccc3)OC(=O)[C@H]2[C@@H]1C(=O)Nc1nc2ccccc2s1)C(=O)OC	Not satisfied
[N-]=[N+]=NCc1ccccc1[C@H]1OC(c2ccc(OCCCO)cc2)=N[C@@]1(Cc1ccccc1)C(=O)NCc1ccccc1	Satisfied
C=CCC(OC(C)=O)[C@@H]1[C@@H](N(Cc2cccc3ccccc23)C(=O)c2ccc(-c3ccccc3)cc2)c2cc(OCCCO)ccc2N1C(=O)Cc1ccc(OC)cc1 (stereo partly drawn)	Not satisfied
CC(C)C[C@@H]1NC(=O)[C@@H]2C[C@H](C(=O)NCCCCCN)[C@H](c3cccc(OCCO)c3)N2C1=O	Not satisfied
CC1(C)[C@@H]2CC(C(O)C3C=CC4C(=O)N(c5ccccc5)C(=O)C4N3Nc3ccccc3)=C[C@H]1C2 (stereo partly drawn)	Satisfied
C=CCOC(=O)[C@@H]1[C@H]2C(=O)O[C@H](c3ccccc3)[C@H](c3ccccc3)N2[C@H](c2ccc(OCCOC(=O)[C@@H]3C[C@@H]4C(=O)N[C@@H](CCCC[N+](C)(C)C)C(=O)N4[C@@H]3c3cccc(OCCO)c3)cc2)[C@@]12C(=O)Nc1ccc(I)cc12	Not satisfied
C=C(CCCC)C(=O)CC[C@H](OC(C)=O)c1cccc(OCCO)c1	Satisfied
O=C1OCCC/C=C\[C@H]2OC34C=CCN(Cc5ccccc5)C(=O)[C@H]3N(CCCCCCO)C(=O)[C@@H]4C12 (stereo partly drawn)	Satisfied
C=CCNC(=O)[C@H]1[C@@H]2C(=O)O[C@@H](c3ccccc3)[C@@H](c3ccccc3)N2[C@@H](c2ccc(O)cc2)[C@]12C(=O)N(C(=O)OCCOC)c1ccc(C#CCNC(N)=O)cc12	Satisfied

====

experiment description: PSAC antagonists in infected red cells, primary screen, cell-based, P. falciparum Indochina, OD700, 1 h (AID 1154)
protocol conditions: P. falciparum Indochina infected RBC osmotic lysis, called active from +8 up or from −8 down
Calls of active or inactive are those of the source.
Possible outcomes: 1 = active, -1 = inactive

compound	assigned class
COc1ccc(C(=O)Nc2ccc(CN3C(=O)[C@@]4(O[C@@H](CCn5cc([C@H](O)c6ccccc6)nn5)[C@H]([Si](C)(C)c5ccc(OC)cc5)[C@H]4C)c4ccccc43)cc2)cc1	1
COc1ccc(CCNC(=O)[C@@]2(C)c3ccccc3C(=O)N(Cc3cc(F)cc(C(F)(F)F)c3)[C@H]2c2ccc(CO)cc2)cc1	1
CCCCC=C[C@@H](NC(=O)Oc1cccc(C(F)(F)F)c1)c1ccccc1	-1
COCCOC(=O)N1C(=O)[C@@]2(c3cc(C#CCNC(N)=O)ccc31)[C@H](C(=O)NC[C@H](O)c1ccccc1)[C@H]1C(=O)O[C@H](c3ccccc3)[C@H](c3ccccc3)N1[C@@H]2c1ccccc1OCCO	-1
O=C(c1ccccc1)N1Cc2ccccc2[C@@H]2OC(c3ccc(OCCCO)cc3)=N[C@]2(Cc2ccccc2)C1=O	1
C=C(CCCC)/C(=C/C[C@@H](OC(C)=O)c1ccccc1OCCO)c1cnc2ccccc2c1	1
C=CCN(Cc1ccccc1)C(=O)C(c1cccs1)N(CCOCCO)C(=O)/C=C\C(=O)O (configuration not stated)	-1
CC(C)C(=C=CC[C@@H](O)c1ccccc1OCCO)CCO	-1
O=C1C2C=CC(C(O)c3ccc(F)cc3)N(Nc3ccccc3F)C2C(=O)N1c1ccccc1 (configuration not stated)	-1
COCCOC(=O)N1C(=O)[C@@]2(c3cc(C#Cc4ccc(OC)cc4)ccc31)[C@H](C(=O)N1CCCCCCC1)[C@H]1C(=O)O[C@H](c3ccccc3)[C@H](c3ccccc3)N1[C@@H]2c1ccc(OCCO)cc1	-1
CCCC=C(CCC)[C@@H](NC(=O)Oc1ccc(F)cc1)c1ccc(C(=O)OC)cc1	-1
O=C1c2ccccc2[C@@]2(Cc3ccccc3N(CCN3CCOCC3)C2=O)[C@H](c2ccc(CO)cc2)N1Cc1ccccc1	-1
C=CCC(OC(C)=O)[C@@H]1[C@@H](N(Cc2ccc(-c3cccc(C(F)(F)F)c3)o2)C(=O)c2ccc(-c3ccccc3)cc2)c2cc(OCCCO)ccc2N1C(=O)c1ccc(-c2ccccc2)cc1 (some centres not stated)	-1
COc1ccc([Si](C)(C)[C@H]2[C@H](CC(=O)N3Cc4ccccc4C[C@H]3CO)O[C@@]3(C(=O)N(Cc4ccc(N5CCC5=O)cc4)c4ccccc43)[C@@H]2C)cc1	-1
CCN(CC)c1ccc(N2CC=CC34O[C@@H]5/C=C\CCCOC(=O)C5[C@H]3C(=O)N(CCO)[C@@H]4C2=O)cc1 (some centres not stated)	-1
COC(=O)[C@@]1(Cc2ccc(OC)cc2)[C@H]2c3cc(C(=O)N4CCCC4)n(Cc4ccc(OC)c(OC)c4)c3C[C@H]2CN1C(=O)c1ccccc1	-1
O=C1O[C@@H](c2ccccc2)[C@@H](c2ccccc2)N2[C@@H](c3ccccc3OCCO)[C@]3(C(=O)Nc4ccc(C#CC5=CCCCC5)cc43)[C@@H](C(=O)Nc3nc4ccccc4s3)[C@H]12	-1
COc1ccc(C(=O)Nc2cccc(CN3C(=O)[C@]4(O[C@H](CCO)[C@@H]([Si](C)(C)c5ccc(OC)cc5)[C@@H]4C)c4ccccc43)c2)cc1	-1
O=C(NCc1ccccc1)[C@@]1(CCS(=O)(=O)c2ccccc2)N=C(c2ccc(OCCCO)cc2)O[C@H]1c1ccccc1	1
Cc1ccc(S[C@]2(C(=O)NC3CC3)CC(=O)N(C3Cc4ccccc4C3)[C@@H]2c2ccc(CO)cc2)cc1	-1
CC1(C)[C@@H]2CC(C(O)C3C=CC4C(=O)N(c5ccccc5)C(=O)C4N3Nc3ccccc3)=C[C@H]1C2 (some centres not stated)	-1
C=CCC(OC(C)=O)[C@@H]1[C@@H](N(Cc2ccc(-c3cccc(C(F)(F)F)c3)o2)C(=O)Cc2ccc(F)cc2)c2cc(OCCCO)ccc2N1C(=O)Cc1ccc(OC)cc1 (some centres not stated)	-1
COCCOC(=O)N1C(=O)[C@@]2(c3cc(C#CC4=CCCCC4)ccc31)[C@H](C(N)=O)[C@H]1C(=O)O[C@H](c3ccccc3)[C@H](c3ccccc3)N1[C@@H]2c1ccc(OCCO)cc1	-1
C=CC[C@]1(C(=O)NCCCOC)N=C(c2ccc(OCCCO)cc2)O[C@H]1c1ccccc1N=[N+]=[N-]	1
[N-]=[N+]=Nc1ccccc1C[C@]1(C(=O)NCC(O)CO)N=C(c2ccc(OCCCO)cc2)O[C@H]1c1ccccc1N=[N+]=[N-] (some centres not stated)	1
CCCCCN1CC=CC23O[C@@H]4/C=C\CCCOC(=O)C4[C@H]2C(=O)N(C(CO)C(C)C)[C@@H]3C1=O (some centres not stated)	-1
COC(=O)[C@@]1(Cc2ccc(OC)cc2)[C@H]2c3cc(C(=O)N4CCCC4)n(Cc4ccsc4Br)c3C[C@H]2CN1C(=O)c1ccccc1	-1
